From: paper PMC10397247

# assayedSystem: T1, 4H906-bN
# T1 chain: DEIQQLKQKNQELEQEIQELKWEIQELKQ
# experiment: two-hybrid library CCNG1;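 also: natural log of median RNA to DNA barcode read ratio; higher means stronger binding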
readoutKind: interaction score

Just so you know, measured interaction score for DENQQLEQKIQELKQEIQELEWENQELKQ [4H1348-bN] came out at -0.116

Just so you know, measured interaction score for DKNQQLKQEIQELEQKIQELKWENQELKQ [4H3628-bN] came out at 0.069

Just so you know, measured interaction score for DKNQQLEQEIQELKQKIQELEWKNQELEQ [4H3175-bN] came out at -1.02

Just so you know, measured interaction score for DKNQQLEQKNQELEQKIQELKWEIQELEQ [4H3497-bN] came out at -0.915

Just so you know, measured interaction score for DKNQQLKQEIQELEQKNQELEWKIQELKQ [4H3638-bN] came out at -0.17

Just so you know, measured interaction score for DEIQELEKKNEELKREIWELKKKIQELKR [4H462-bH] came out at -2.48

Just so you know, measured interaction score for DEIQQLKQEIQELKQEIQELEWKNQELKQ [4H584-bN] came out at -0.43
